Here, each record is paired with measured diameter of the inhibition zone (DIZ) data.
# System: Candida albicans
# Test: Antifungal activity against Candida albicans MTCC 277 after 48 hrs by agar cup plate method; also: test concentration or dose not given here
# Assay type: functional
Property Label: diameter of the inhibition zone (DIZ) (mm)

Compound: CCOc1ccc2c(c1)cc(C(OC(C)=O)P(=O)(OCC)OCC)c1nnnn12 (centres undefined)
Target: Candida albicans
Quantity Unit: mm
Result: 14.1

Compound: CCOP(=O)(OCC)C(O)c1cc2ccc(C)cc2n2nnnc12 (centres undefined)
Target: Candida albicans
Quantity Unit: mm
Result: 13.8

Compound: CCOc1ccc2c(c1)cc(C(O)P(=O)(OCC)OCC)c1nnnn12 (centres undefined)
Target: Candida albicans
Quantity Unit: mm
Result: 13.8

Compound: CCOP(=O)(OCC)C(OC(C)=O)c1cc2ccc(C)cc2n2nnnc12 (centres undefined)
Target: Candida albicans
Quantity Unit: mm
Result: 13.4

Compound: CCOP(=O)(OCC)C(O)c1cc2cc(C)ccc2n2nnnc12 (centres undefined)
Target: Candida albicans
Quantity Unit: mm
Result: 13.2

Compound: CCOP(=O)(OCC)C(O)c1cc2cccc(OC)c2n2nnnc12 (centres undefined)
Target: Candida albicans
Quantity Unit: mm
Result: 13.8

Compound: CCOP(=O)(OCC)C(O)c1cc2cccc(C)c2n2nnnc12 (centres undefined)
Target: Candida albicans
Quantity Unit: mm
Result: 13

Compound: CCOP(=O)(OCC)C(O)c1cc2ccc(OC)cc2n2nnnc12 (centres undefined)
Target: Candida albicans
Quantity Unit: mm
Result: 13.4

Compound: CCOP(=O)(OCC)C(O)c1cc2cccc(CC)c2n2nnnc12 (centres undefined)
Target: Candida albicans
Quantity Unit: mm
Result: 13.4

Compound: CCOP(=O)(OCC)C(OC(C)=O)c1cc2cccc(CC)c2n2nnnc12 (centres undefined)
Target: Candida albicans
Quantity Unit: mm
Result: 12.1

Compound: CCOP(=O)(OCC)C(OC(C)=O)c1cc2ccc(OC)cc2n2nnnc12 (centres undefined)
Target: Candida albicans
Quantity Unit: mm
Result: 13.8

Compound: COC1=CC(=O)C[C@@H](C)[C@]12Oc1c(Cl)c(OC)cc(OC)c1C2=O
Target: Candida albicans
Quantity Unit: mm
Result: 16.4

Compound: CCOP(=O)(OCC)C(OC(C)=O)c1cc2cc(C)ccc2n2nnnc12 (centres undefined)
Target: Candida albicans
Quantity Unit: mm
Result: 13.1

Compound: CCOP(=O)(OCC)C(OC(C)=O)c1cc2cccc(C)c2n2nnnc12 (centres undefined)
Target: Candida albicans
Quantity Unit: mm
Result: 12.2

Compound: CCOP(=O)(OCC)C(OC(C)=O)c1cc2cccc(OC)c2n2nnnc12 (centres undefined)
Target: Candida albicans
Quantity Unit: mm
Result: 12.1

Compound: CCOP(=O)(OCC)C(O)c1cc2ccccc2n2nnnc12 (centres undefined)
Target: Candida albicans
Quantity Unit: mm
Result: 13.6

Compound: CCOP(=O)(OCC)C(OC(C)=O)c1cc2ccccc2n2nnnc12 (centres undefined)
Target: Candida albicans
Quantity Unit: mm
Result: 14.2

Compound: CCOP(=O)(OCC)C(OC(C)=O)c1cc2cc(OC)ccc2n2nnnc12 (centres undefined)
Target: Candida albicans
Quantity Unit: mm
Result: 13.4

Compound: CCOP(=O)(OCC)C(O)c1cc2cc(OC)ccc2n2nnnc12 (centres undefined)
Target: Candida albicans
Quantity Unit: mm
Result: 14.1
